Each recorded value in this set is attributed to patent US7759345B2.

As an illustration, consider measured Toxicity Data Heart for molecules on Heart.
Reply briefly: the number, and no unit.

# return recorded Toxicity Data Heart for input CCCCCCCC(=O)Oc1cc2c(cc1OC)[C@@]1(CS[C@@H]3c4c(OC(C)=O)c(C)c5c(c4[C@H](COC1=O)N1C3[C@H]3c4c(cc(C)c(OC)c4O)C[C@@H]([C@@H]1O)N3C)OCO5)NCC2 (some centres unmarked)
8.14E-08

Give recorded Toxicity Data Heart. COc1cc2c(cc1O)CCN[C@]21CS[C@@H]2c3c(OC)c(C)c4c(c3[C@H](COC1=O)N1C2[C@H]2c3c(cc(C)c(OC)c3O)C[C@@H]([C@@H]1O)N2C)OCO4 (some centres unmarked)
3.95E-08

Look up and report measured Toxicity Data Heart for this entry: COc1cc2c(cc1OC(=O)c1cc3ccccc3oc1=O)CCN[C@]21CS[C@@H]2c3c(OC(C)=O)c(C)c4c(c3[C@H](COC1=O)N1C2[C@H]2c3c(cc(C)c(OC)c3O)C[C@@H]([C@@H]1O)N2C)OCO4 (some centres unmarked)
1.62E-08

Note Toxicity Data Heart for the molecule shown: COc1cc2c(cc1OC(=O)OC(C)(C)C)CCN[C@]21CS[C@@H]2c3c(OC(=O)OC(C)(C)C)c(C)c4c(c3[C@H](COC1=O)N1C2[C@H]2c3c(cc(C)c(OC)c3OC(=O)OC(C)(C)C)C[C@@H]([C@@H]1O)N2C)OCO4 (some centres unmarked)
2.76E-08

Note down Toxicity Data Heart recorded for C=CCOC(=O)Oc1c(C)c2c(c3c1[C@H]1SC[C@]4(NCCc5cc(O)c(OC)cc54)C(=O)OC[C@@H]3N3C1[C@H]1c4c(cc(C)c(OC)c4O)C[C@@H]([C@@H]3O)N1C)OCO2 (some centres unmarked)
2.79E-08

----------
- System: Liver
recorded endpoint: Toxicity Data Liver

Output reported Toxicity Data Liver of the molecule COc1cc2c(cc1O)CCN[C@]21CS[C@@H]2c3c(OC(=O)CCCCC4SCC5NC(=O)NC54)c(C)c4c(c3[C@H](COC1=O)N1C2[C@H]2c3c(cc(C)c(OC)c3OC(=O)CCCCC3SCC5NC(=O)NC53)C[C@@H]([C@@H]1O)N2C)OCO4 (some centres unmarked) on Liver.
2.47E-07

Look up and report Toxicity Data Liver, with Liver as system, for COc1cc2c(cc1O)CCN[C@]21CS[C@@H]2c3c(OC(C)=O)c(C)c4c(c3[C@H](COC1=O)N1C2[C@H]2c3c(cc(C)c(OC)c3OC)C[C@@H]([C@@H]1O)N2C)OCO4 (some centres unmarked)
4.21E-08

Report value only: Toxicity Data Liver, Liver, COc1cc2c(cc1OC(=O)OC(C)(C)C)CCN[C@]21CS[C@@H]2c3c(OC(=O)OC(C)(C)C)c(C)c4c(c3[C@H](COC1=O)N1C2[C@H]2c3c(cc(C)c(OC)c3O)C[C@@H]([C@@H]1O)N2C)OCO4 (some centres unmarked)
4.03E-08

Report Toxicity Data Liver on Liver for this entry: C=COC(=O)Oc1cc2c(cc1OC)[C@@]1(CS[C@@H]3c4c(OC(C)=O)c(C)c5c(c4[C@H](COC1=O)N1C3[C@H]3c4c(cc(C)c(OC)c4OC(=O)OC=C)C[C@@H]([C@@H]1O)N3C)OCO5)NCC2 (some centres unmarked)
2.30E-08

With Liver as the test system, provide measured Toxicity Data Liver for this molecule: COc1cc2c(cc1OC(C)=O)CCN[C@]21CS[C@@H]2c3c(OC(C)=O)c(C)c4c(c3[C@H](COC1=O)N1C2[C@H]2c3c(cc(C)c(OC)c3O)C[C@@H]([C@@H]1O)N2C)OCO4 (some centres unmarked)
4.66E-09

Would you please give the reported Toxicity Data Liver of COc1cc2c(cc1O)CCN[C@]21CS[C@@H]2c3c(OC(C)=O)c(C)c4c(c3[C@H](COC1=O)N1C2[C@H]2c3c(cc(C)c(OC)c3OC(=O)OC(C)(C)C)C[C@@H]([C@@H]1O)N2C)OCO4 (some centres unmarked) with Liver?
1.57E-08

Determine reported Toxicity Data Liver for COC1=C(C)C(=O)C2=C(C1=O)[C@@H]1C3[C@@H]4SC[C@]5(NCCc6cc(O)c(OC)cc65)C(=O)OC[C@@H](c5c6c(c(C)c(OC(C)=O)c54)OCO6)N3[C@@H](O)[C@H](C2)N1C (some centres unmarked) ; test system: Liver.
5.40E-08

Give measured Toxicity Data Liver for COc1cc2c(cc1OC(=O)OC(C)(C)C)CCN[C@]21CS[C@@H]2c3c(OC(=O)OC(C)(C)C)c(C)c4c(c3[C@H](COC1=O)N1C2[C@H]2c3c(cc(C)c(OC)c3OC(=O)OC(C)(C)C)C[C@@H]([C@@H]1O)N2C)OCO4 (some centres unmarked) (Liver).
1.34E-08

With Liver as the test system, provide measured Toxicity Data Liver for this molecule: CCN1CCc2cc(O)c(OC)cc2[C@@]12CS[C@@H]1c3c(OC(C)=O)c(C)c4c(c3[C@H](COC2=O)N2C1[C@H]1c3c(cc(C)c(OC)c3O)C[C@@H]([C@@H]2O)N1C)OCO4 (some centres unmarked)
1.24E-08

System Liver. Read-out Toxicity Data Liver. Item COc1cc2c(cc1OC(=O)/C=C/c1ccccc1)CCN[C@]21CS[C@@H]2c3c(OC(C)=O)c(C)c4c(c3[C@H](COC1=O)N1C2[C@H]2c3c(cc(C)c(OC)c3O)C[C@@H]([C@@H]1O)N2C)OCO4 (some centres unmarked) . Report value.
1.32E-08

Provide the reported Toxicity Data Liver (system: Liver) for COc1cc2c(cc1OC(=O)[C@H](C)NC(=O)OC(C)(C)C)CCN[C@]21CS[C@@H]2c3c(OC(C)=O)c(C)c4c(c3[C@H](COC1=O)N1C2[C@H]2c3c(cc(C)c(OC)c3O)C[C@@H]([C@@H]1O)N2C)OCO4 (some centres unmarked)
2.28E-08

Under Liver, report Toxicity Data Liver for COc1cc2c(cc1O)CCN[C@]21CS[C@@H]2c3c(OC(=O)/C=C/c4ccccc4)c(C)c4c(c3[C@H](COC1=O)N1C2[C@H]2c3c(cc(C)c(OC)c3O)C[C@@H]([C@@H]1O)N2C)OCO4 (some centres unmarked)
8.58E-09

State the measured Toxicity Data Liver (Liver) of CCCCCCCC(=O)Oc1cc2c(cc1OC)[C@@]1(CS[C@@H]3c4c(OC(C)=O)c(C)c5c(c4[C@H](COC1=O)N1C3[C@@H]3N[C@@H](Cc4cc(C)c(OC)c(O)c43)[C@@H]1O)OCO5)NCC2 (some centres unmarked)
3.93E-08

Return reported Toxicity Data Liver for target or system Liver, item COc1cc2c(cc1OC(=O)Cc1cc(=O)oc3cc(N(C)C)ccc13)CCN[C@]21CS[C@@H]2c3c(OC(C)=O)c(C)c4c(c3[C@H](COC1=O)N1C2[C@H]2c3c(cc(C)c(OC)c3OC(=O)Cc3cc(=O)oc5cc(N(C)C)ccc35)C[C@@H]([C@@H]1O)N2C)OCO4 (some centres unmarked) [Compound 78] .
5.88E-08

Determine reported Toxicity Data Liver for COc1cc2c(cc1OC(=O)c1cc3ccccc3oc1=O)CCN[C@]21CS[C@@H]2c3c(OC(C)=O)c(C)c4c(c3[C@H](COC1=O)N1C2[C@H]2c3c(cc(C)c(OC)c3O)C[C@@H]([C@@H]1O)N2C)OCO4 (some centres unmarked) ; test system: Liver.
1.35E-08

State recorded Toxicity Data Liver with Liver, entry C=CCOC(=O)Oc1c(C)c2c(c3c1[C@H]1SC[C@]4(NCCc5cc(O)c(OC)cc54)C(=O)OC[C@@H]3N3C1[C@H]1c4c(cc(C)c(OC)c4O)C[C@@H]([C@@H]3O)N1C)OCO2 (some centres unmarked) , no comment.
1.68E-08

Write down the reported Toxicity Data Liver (system: Liver) of CCCCCCCC(=O)Oc1cc2c(cc1OC)[C@@]1(CS[C@@H]3c4c(OC(C)=O)c(C)c5c(c4[C@H](COC1=O)N1C3[C@H]3c4c(cc(C)c(OC)c4O)C[C@@H]([C@@H]1O)N3C)OCO5)NCC2 (some centres unmarked)
2.53E-08
